The values you see were collected from ChEMBL document CHEMBL4138310.

test system: Human immunodeficiency virus 1; assay: Ratio of EC50 for wild-type HIV1 pNL4-3 infected in human MT4 in presence of 50% of human serum to EC50 for wild-type HIV-1 pNL4-3 infected in human MT4 in absence of human serum; format: functional
metric-name: Ratio EC50

# example entries with known answers
Cc1ccccc1CNC(=O)[C@H]1N(C(=O)[C@@H](O)[C@H](Cc2ccccc2)NC(=O)[C@@H](NC(=O)c2ccc3ccccc3n2)[C@H]2CCOC2)CSC1(C)C ... >137
COc1cccc2cc(C(=O)N[C@H](C(=O)N[C@@H](Cc3ccccc3)[C@H](O)C(=O)N3CSC(C)(C)[C@H]3C(=O)NCc3c(C)cccc3C)[C@H]3CCOC3)oc12 ... >27

Attention now turns to another entry.
May I ask what Ratio EC50 has been recorded for CN(C)c1cccc(OCC(=O)N[C@H](C(=O)N[C@@H](Cc2ccccc2)[C@H](O)C(=O)N2CSC(C)(C)[C@H]2C(=O)NC2CCCC2)[C@H]2CCOC2)c1 ?
10

---

tested on: Human immunodeficiency virus 1; experiment: Ratio of EC50 for wild-type HIV1 pNL4-3 infected in human MT4 in presence of 50% of human serum to EC50 for wild-type HIV-1 pNL4-3 infected in human MT4 in absence of human serum; assay type: functional
Entries and their Ratio EC50

Here is how some compounds turned out for Ratio EC50.
Cc1ccccc1CNC(=O)[C@H]1N(C(=O)[C@@H](O)[C@H](Cc2ccccc2)NC(=O)[C@@H](NC(=O)c2ccc3ccccc3n2)[C@@H]2CCOC2)CSC1(C)C ... 23
CN(C)c1cccc(OCC(=O)N[C@H](C(=O)N[C@@H](Cc2ccccc2)[C@H](O)C(=O)N2CSC(C)(C)[C@H]2C(=O)NC/C=C\CO)[C@H]2CCOC2)c1 ... 3.6

Here's the next entry for you.
# Ratio EC50 lookup, item C=CCNC(=O)[C@H]1N(C(=O)[C@@H](O)[C@H](Cc2ccccc2)NC(=O)[C@@H](NC(=O)COc2cccc(N(C)C)c2)[C@H]2CCOC2)CSC1(C)C
24

---

molecular target: Protease (Human immunodeficiency virus 1) (UniProt Q9YQ12); assay: Inhibition of recombinant HIV1 protease at 1 nM using H-Lys-Ala-Arg-Val-Tyr-Phe(p-NO2)-Glu-Ala-Nle-NH2 as substrate preincubated for 5 mins followed by substrate addition measured after 3 hrs by fluorescence-based assay
metric-name: inhibition (%)
The reply should contain only the number, in %.

COc1cccc2cc(C(=O)N[C@@H](CC(N)=O)C(=O)N[C@@H](Cc3ccccc3)[C@H](O)C(=O)N3CSC(C)(C)[C@H]3C(=O)NCc3c(C)cccc3C)oc12 ... 96
Cc1ccccc1CNC(=O)[C@H]1N(C(=O)[C@@H](O)[C@H](Cc2ccccc2)NC(=O)c2cccc(O)c2C)CSC1(C)C ... 48

Would you kindly look at the next entry?
Which inhibition is reported with Protease (Human immunodeficiency virus 1) (UniProt Q9YQ12) for this entry: Cc1ccccc1CNC(=O)[C@H]1N(C(=O)[C@@H](O)[C@H](Cc2ccccc2)NC(=O)[C@@H](NC(=O)c2ccc3ccccc3n2)[C@@H]2CCOC2)CSC1(C)C ?
69

---

tested on: Human immunodeficiency virus 1; assay: Antiviral activity against wild-type HIV1 pNL4-3 infected in human MT4 cells assessed as inhibition of virus-induced cytopathic effect after 5 days in absence of human serum by MTT assay; format: functional, organism-based; settings: Human immunodeficiency virus 1, pNL4-3, MT4, 120 h
pEC50 reference
On this scale, pEC50 is minus log10 of a concentration expressed in M (mol/L).

Some compounds with recorded pEC50:
C=CCNC(=O)[C@H]1N(C(=O)[C@@H](O)[C@H](Cc2ccccc2)NC(=O)[C@@H](NC(=O)COc2cccc(N(C)C)c2)[C@H]2CCOC2)CSC1(C)C ... 8.10
Cc1ccccc1CNC(=O)[C@H]1N(C(=O)[C@@H](O)[C@H](Cc2ccccc2)NC(=O)[C@@H](NC(=O)c2ccc3ccccc3n2)[C@@H]2CCOC2)CSC1(C)C ... 7.59

For the compound shown here, Cc1cccc(C)c1CNC(=O)[C@H]1N(C(=O)[C@@H](O)[C@H](Cc2ccccc2)NC(=O)[C@@H](NC(=O)c2cc3ccccc3o2)[C@H]2CCOC2)CSC1(C)C , give the reported pEC50.
7.92

---

test system: Human immunodeficiency virus 1; experiment: Antiviral activity against wild-type HIV1 pNL4-3 infected in human MT4 cells assessed as inhibition of virus-induced cytopathic effect after 5 days in presence of 50 % of human serum by MTT assay; assay type: functional, organism-based; conditions: Human immunodeficiency virus 1, pNL4-3, MT4, 120 h
Recorded EC50 values for a group of compounds are listed next.

Cc1ccccc1CNC(=O)[C@H]1N(C(=O)[C@@H](O)[C@H](Cc2ccccc2)NC(=O)[C@@H](NC(=O)c2cnc3ccccc3n2)[C@H]2CCOC2)CSC1(C)C ... 84 nM
CN(C)c1cccc(OCC(=O)N[C@H](C(=O)N[C@@H](Cc2ccccc2)[C@H](O)C(=O)N2CSC(C)(C)[C@H]2C(=O)N[C@H]2CCc3ccccc32)[C@H]2CCOC2)c1 ... 30 nM
Cc1ccccc1CNC(=O)[C@H]1N(C(=O)[C@@H](O)[C@H](Cc2ccccc2)NC(=O)[C@@H](NC(=O)c2ccc3ccccc3n2)[C@@H]2CCOC2)CSC1(C)C ... 602 nM

In the following, a different compound is considered.
Item C=CCNC(=O)[C@H]1N(C(=O)[C@@H](O)[C@H](Cc2ccccc2)NC(=O)[C@@H](NC(=O)COc2cccc(N(C)C)c2)[C@H]2CCOC2)CSC1(C)C has what recorded EC50?
190 nM

---

Documented EC50 across a set of compounds
system: Human immunodeficiency virus 1; assay: Antiviral activity against wild-type HIV1 pNL4-3 infected in human MT4 cells assessed as inhibition of virus-induced cytopathic effect after 5 days in absence of human serum by MTT assay; format: functional, organism-based; details: Human immunodeficiency virus 1, pNL4-3, MT4, 120 h

Guide cases for EC50, answers given:
Cc1cccc(C)c1CNC(=O)[C@H]1N(C(=O)[C@@H](O)[C@H](Cc2ccccc2)NC(=O)[C@@H](NC(=O)COc2cccc(N(C)C)c2)[C@H]2CCOC2)CSC1(C)C ... < 3 nM
COc1cccc2cc(C(=O)N[C@H](C(=O)N[C@@H](Cc3ccccc3)[C@H](O)C(=O)N3CSC(C)(C)[C@H]3C(=O)NCc3c(C)cccc3C)[C@H]3CCOC3)oc12 ... < 3 nM

Field request: EC50 | item: Cc1ccccc1CNC(=O)[C@H]1N(C(=O)[C@@H](O)[C@H](Cc2ccccc2)NC(=O)[C@@H](NC(=O)c2ccc3ccccc3n2)[C@H]2CCOC2)CSC1(C)C
< 3 nM
